assay: qHTS of pediatric cancer cell lines to identify multiple opportunities for drug repurposing: Primary screen for SK-N-MC cells (AID 1347093); conditions: SK-N-MC viability, CellTiter-Glo luminescence, 48 h; series mostly up to 46 µM
Records with an inconclusive call do not appear. The source made the active and inactive calls. The call rests on the fitted dose curve; in most records, active means well fitted cell-killing curve with a large enough effect; inconclusive means small, poorly fitted or top-dose-only effect; inactive means no such curve, though single readings can be large or run the other way.
Possible outcomes: active, inactive

structureSmilesString	groupLabel
C/C(=N\O)c1ccc(OCC(=O)N2CCCCC2)cc1	inactive
Cc1ccc(C(=O)c2ccc(CC(=O)O)n2C)cc1	inactive
O=C(O)c1cc(O)c(O)c(O)c1	inactive
Nc1ccc(C(=O)O)c(O)c1	inactive
CCCCCCCC/C=C/C(=O)O	active
CN(C)c1ccc(C(=C2C=CC(=[N+](C)C)C=C2)c2ccccc2)cc1	active
CCCCCCCCCCCCCCCC(=O)OC(C)C	inactive

====

assay: Primary qHTS for inhibitors of La Crosse Virus (LACV) - induced cell death in SH-SY5Y cells (AID 1508616); conditions: SH-SY5Y LACV cytopathicity rescue, ATP luminescence, 6 d; series mostly up to 9.63 µM;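 further: top concentration of the series differs between compounds; 0% = infected DMSO wells and 100% = uninfected DMSO wells; higher means more rescue of cells from virus-induced death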
Inconclusive results are not listed. The source made the active and inactive calls. Calls follow the shape of the dose curve; as a rule, active = well fitted inhibition curve with a large enough effect; inconclusive = small, poorly fitted or top-dose-only effect; inactive = no such curve, though single readings can be large or run the other way.
propertyName: activity change

compound	testValue
O=c1[nH]c2cc(C(F)(F)F)ccc2n1-c1cc(C(F)(F)F)ccc1O	inactive
CC1OC1P(=O)(O)O (stereo unspecified)	inactive
Nc1nc(Cl)nc2c1ncn2[C@@H]1O[C@H](CO)[C@@H](O)[C@H]1O	inactive
CC(C)OC(=O)c1cc(C(=O)OC(C)C)cc([N+](=O)[O-])c1	inactive
CNc1ncnc2c1ncn2[C@@H]1O[C@H](CO)[C@@H](O)[C@H]1O	inactive
O=C(/C=C/c1ccccc1)NCCO	inactive

====

experiment: Cellular Toxicity (caspase-3) HepG2 (AID 654); details: HepG2 caspase-3 activation, luminescence; series mostly up to 92.2 µM;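 on caspase-3 activation: cells exposed to compound for 16 hours before reading; 0% = DMSO alone and 100% = caspase signal from 100 µM tamoxifen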
Activity calls are given as the source filed them. Calls follow the shape of the dose curve; as a rule, active = well fitted activation curve with a large enough effect; inconclusive = small, poorly fitted or top-dose-only effect; inactive = flat fitted curve, though single readings scatter.
Possible outcomes: class 1 (active), class 0 (inactive)

compound	groupLabel
S=c1[nH]c2ccccc2s1	class 0
CC(C)NCC(O)COc1cccc2ccccc12 (stereo unspecified)	class 0
CN(C)c1ccc(C(=C2C=CC(=[N+](C)C)C=C2)c2ccccc2)cc1	class 1
O=C(O)c1cc(O)c(O)c(O)c1	class 0
O=c1cc(-c2ccccc2)oc2ccccc12	class 0
O=C1CN(/N=C/c2ccc([N+](=O)[O-])o2)C(=O)N1	class 0
Nc1ccc(O)c(C(=O)O)c1	class 0
O=C(O)/C=C\C(=O)O	class 0
Nc1nc2ccc([N+](=O)[O-])cc2s1	class 0
NCCO	class 0
c1cnc2c(c1)ccc1cccnc12	class 0

====

experiment: qHTS assay for small molecule disruptors of the mitochondrial membrane potential - 5 hr assay (AID 651755); conditions: JC-1-type ratio dye; series mostly up to 92.2 µM; further: nearly all actives have a fitted effect of over 40% in size
Records with an inconclusive call do not appear. The source made the active and inactive calls. The call rests on the fitted dose curve.
Possible outcomes: active, inactive

compound	groupLabel
COc1cc(/C=C/C(=O)CC(=O)/C=C/c2ccc(O)c(OC)c2)ccc1O	active
O=C(O)c1cc(O)c(O)c(O)c1	inactive
CN(C)CCC(c1ccc(Cl)cc1)c1ccccn1 (configuration not stated)	inactive
COc1cc(CNC(=O)CCCC/C=C/C(C)C)ccc1O	inactive
C#C[C@]1(O)CC[C@H]2[C@@H]3CCc4cc(O)ccc4[C@H]3CC[C@@]21C	inactive
CN(C)c1ccc(C(=C2C=CC(=[N+](C)C)C=C2)c2ccccc2)cc1	active
CCCCCCCCCCCCCCCCCC(=O)O	inactive

====

Assay: qHTS of pediatric cancer cell lines to identify multiple opportunities for drug repurposing: Confirmatory screen for MG 63 (6-TG R) cells (AID 1347119); further: nearly all actives have a fitted effect of over 55% in size
Settings: MG-63 (6-TG resistant) osteosarcoma viability; series mostly up to 95.5 µM
Experimental: Drug repurposing or repositioning has been offered as a strategy for drug development in oncology programs. […] [1] Shen, M et al. Quantitative high-throughput phenotypic screening of pediatric cancer cell lines identifies multiple opportunities for drug repurposing. […] Cells were assayed in growth media at a density of 500-1,000 cells/well. […] After a 15 min incubation at room temperature, samples were analyzed for luminescence intensity using a ViewLux High-throughput CCD imager equipped with clear filters.
Records with an inconclusive call do not appear. Activity calls are given as the source filed them. Calls follow the shape of the dose curve; as a rule, active = well fitted cell-killing curve with a large enough effect; inconclusive = small, poorly fitted or top-dose-only effect, or effect the other way; inactive = no such curve, though single readings can be large or run the other way.
Possible outcomes: true (1) = active, false (0) = inactive

structureSmilesString	groupLabel
CCCSc1ccc2nc(NC(=O)OC)[nH]c2c1	true (1)
COC(=O)Nc1nc2ccc(C(=O)C3CC3)cc2[nH]1	true (1)
[O-][n+]1ccccc1SSc1cccc[n+]1[O-]	false (0)
Oc1c(Br)cc(Br)c2cccnc12	true (1)
COC(=O)c1nc(Cl)c(Cl)nc1N	true (1)
N=C1N=C(N)c2cc3ccccc3cc21	true (1)

====

test: Validation screen for small molecules that induce DNA re-replication in MCF 10A normal breast cells (AID 463097); details: MCF 10A cells, DNA re-replication phenotype imaging; series mostly up to 46.1 µM; further: 0% is about no effect; nearly all actives have a fitted effect of over 60% in size
Records with an inconclusive call do not appear. Activity calls are given as the source filed them. Calls follow the shape of the dose curve; as a rule, active = well fitted activation curve with a large enough effect; inconclusive = small, poorly fitted or top-dose-only effect; inactive = flat fitted curve, though single readings scatter.
propertyName: outcome

compound	propertyName	testValue
O=C(O)[C@@H]1C[C@H](C(=O)O)N1	outcome	inactive
O=c1[nH]c2cc(C(F)(F)F)ccc2n1-c1cc(C(F)(F)F)ccc1O	outcome	inactive
CO/N=C(\C(=O)N[C@@H]1C(=O)N2C(C(=O)O)=C(COC(C)=O)CS[C@H]12)c1csc(N)n1 (stereo in doubt)	outcome	inactive
CC(=O)N[C@H](C(=O)O)C(C)(C)SN=O	outcome	inactive
COc1ccccc1CNCCCCCCNCCCCCCCCNCCCCCCNCc1ccccc1OC	outcome	inactive
COc1cc2c(CCNC(C)=O)c[nH]c2cc1Cl	outcome	inactive
NCCCCC(=O)O	outcome	inactive
CN1CCc2cc(O)c(O)cc2C(c2ccccc2)C1 (stereo not drawn)	outcome	inactive
O=C(O)c1cc([N+](=O)[O-])ccc1NCCCc1ccccc1	outcome	inactive
NCCNC(=O)c1ncsc1-c1cccc(F)c1	outcome	inactive
CCCn1c(=O)c2[nH]c(-c3ccc(OCC(=O)NCCN)cc3)nc2n(CCC)c1=O	outcome	inactive
NCCCCCCCCCCN	outcome	inactive
O=C(Nc1ccccc1)c1cc([N+](=O)[O-])ccc1Cl	outcome	inactive
O=C(O)c1cc(=O)c2c(Cl)cc(Cl)cc2[nH]1	outcome	inactive
Cn1c(=O)c2[nH]c(-c3ccccc3)nc2n(C)c1=O	outcome	inactive
O=c1[nH]c2cc(Cl)c(Cl)cc2[nH]c1=O	outcome	inactive
C[N+](C)(CCCCCC[N+](C)(C)CCCN1C(=O)c2cccc3cccc(c23)C1=O)CCCN1C(=O)c2cccc3cccc(c23)C1=O	outcome	inactive
CN(C)c1nc(N)c(C(=O)N=C(N)N)nc1Cl	outcome	inactive
O=C(Nc1cccc(C(=O)Nc2ccc(S(=O)(=O)O)c3cc(S(=O)(=O)O)cc(S(=O)(=O)O)c23)c1)Nc1cccc(C(=O)Nc2ccc(S(=O)(=O)O)c3cc(S(=O)(=O)O)cc(S(=O)(=O)O)c23)c1	outcome	inactive
CC1(C)CCC=[N+]1[O-]	outcome	inactive
CC1CN(S(=O)(=O)c2cccc3cnccc23)CCN1 (stereo not drawn)	outcome	inactive
CN1CCc2cc(NC(=O)Nc3cccnc3)ccc21	outcome	inactive
O=C(O)CNC(=O)C(CS)Cc1ccccc1 (stereo not drawn)	outcome	inactive

====

assay: Cellular Toxicity (caspase-3) N2a (AID 665); conditions: N2a cells, luminescence; caspase-3 activation; series mostly up to 92.2 µM;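 further: compound exposure lasted 16 h at 37 °C before readout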
Activity calls are given as the source filed them. The call rests on the fitted dose curve; in most records, active means well fitted activation curve with a large enough effect; inconclusive means small, poorly fitted or top-dose-only effect; inactive means flat fitted curve, though single readings scatter.
Possible outcomes: TRUE = active, FALSE = inactive

compound	groupLabel
Nc1nc2ccc([N+](=O)[O-])cc2s1	FALSE
CC1(C)S[C@@H]2[C@H](NC(=O)[C@H](N)c3ccccc3)C(=O)N2[C@H]1C(=O)O	FALSE
COc1cc(CNC(=O)CCCC/C=C/C(C)C)ccc1O	FALSE
CCCOC(=O)c1ccc(O)cc1	FALSE
Nc1ccc([N+](=O)[O-])cc1O	FALSE
O=c1cc(-c2ccccc2)oc2ccccc12	FALSE
O=C1CN(/N=C/c2ccc([N+](=O)[O-])o2)C(=O)N1	FALSE
NCCO	FALSE
c1ccc2sc(SSc3nc4ccccc4s3)nc2c1	FALSE
CC(C)NCC(O)COc1cccc2ccccc12 (configuration not stated)	FALSE
CN(C)c1ccc(C(=C2C=CC(=[N+](C)C)C=C2)c2ccccc2)cc1	TRUE
O=C(O)c1cc(O)c(O)c(O)c1	FALSE

====

experiment: qHTS Assay for Lipid Storage Modulators (AID 1519); conditions: Drosophila S3 cells, BODIPY lipid droplet/cell ratio, laser cytometry; at 57.5 µM (top of the series); cells loaded with oleic acid; further: on the % scale 0 is the no-effect control and ±100 the full control effect
Results filed as inconclusive are left out.

compound	scaleUnit	activity change, negative = inhibition
COc1cc(C(O)CO)ccc1OS(=O)(=O)O (centres undefined)	%	0.915
COc1cc2c(CCNC(C)=O)c[nH]c2cc1Cl	%	-11.4
S=C(S)OC1CC2CC1C1CCCC21 (centres undefined)	%	-2.21
CN1CCc2cc(NC(=O)Nc3cccnc3)ccc21	%	0.252
O=C(c1cc(O)c(O)c([N+](=O)[O-])c1)c1ccccc1F	%	-2.67
NCCCS(=O)(=O)O	%	4.47
COc1cc2nc(N3CCN(C(=O)OCc4ccccc4)C(C(=O)NC(C)(C)C)C3)nc(N)c2cc1OC (centres undefined)	%	1.16
NC(CCCP(=O)(O)O)C(=O)O (centres undefined)	%	0.0706
Cc1ccc(C(=O)O[C@H](C(=O)O)[C@@H](OC(=O)c2ccc(C)cc2)C(=O)O)cc1 (tested in a mixture with another compound)	%	-0.359
Nc1ccc(C(=O)O)c(O)c1	%	-7.1
CCCCCCCCCCCCCCCC(=O)NCC(COP(=O)([O-])OCC[N+](C)(C)C)OCC (centres undefined)	%	-0.558
Cc1ccccc1CNc1ncnc2c1ncn2C1OC(CO)C(O)C1O (centres undefined)	%	0.209
O=C(Nc1cccc(C(=O)Nc2ccc(S(=O)(=O)O)c3cc(S(=O)(=O)O)cc(S(=O)(=O)O)c23)c1)Nc1cccc(C(=O)Nc2ccc(S(=O)(=O)O)c3cc(S(=O)(=O)O)cc(S(=O)(=O)O)c23)c1	%	2.61
O=c1[nH]c2cc(C(F)(F)F)ccc2n1-c1cc(C(F)(F)F)ccc1O	%	-0.787
NCCSSCCN	%	3.98
CC(C)NCC(O)COc1cccc2ccccc12 (centres undefined)	%	10.9
CN1C2CCC1CC(OC(=O)C(O)c1ccccc1)C2 (centres undefined)	%	9.19
CC1CN(S(=O)(=O)c2cccc3cnccc23)CCN1 (centres undefined)	%	1.97
O=C(O)CCCC[C@@H]1CCSS1	%	-3.03
Cc1c(N)c(=O)n(-c2ccccc2)n1C	%	3.79
O=S(=O)(c1cccc2c(I)cccc12)N1CCCNCC1	%	1.19
CC(C)NC[C@H](O)COc1cccc2[nH]ccc12	%	1.59
Fc1cccc(/C=N/N=C/c2cccc(F)c2)c1	%	2.18
CN(C)c1ccc(/C=C2\C(=O)Nc3ccccc32)cc1	%	0.655
